Biological target: recombinant HIV protease (Human immunodeficiency virus type 1 group M subtype B, UniProt P12497)
Construct: Instead of natural HIV protease, recombinant HIV protease already reported in the literature
Experiment: HIV protease inhibitory activity (cleavage of synthetic nonapeptide substrate, reverse phase HPLC)
Assay type: biochemical
Settings: final concentration of Test Compound 5 μM; pH5.5, 37° C., 60 minutes
observation type: Inhibition of HIV protease (inhibitory rate) (%)
Number only, in %; omit the unit.

Query :: Answer with the recorded Inhibition of HIV protease (inhibitory rate) of CC(C)(C)NC(=O)[C@H]1N(C(=O)[C@@H](O)[C@H](Cc2ccccc2)NC(=O)CC(C)(C)C(=O)O)CSC1(C)C [Ref. Ex. 2] only.
Result :: 99

Query :: Give Inhibition of HIV protease (inhibitory rate) for CC(C)(C)NC(=O)[C@@H]1CSCN1C(=O)[C@@H](O)[C@H](Cc1ccccc1)NC(=O)CC(C)(C)C(=O)O [Ref. Ex. 1]
Result :: 93

Query :: Name the recorded Inhibition of HIV protease (inhibitory rate) of the item Cc1ccccc1CNC(=O)[C@H]1N(C(=O)[C@@H](O)[C@H](Cc2ccccc2)NC(=O)CC(C)(C)C(=O)OC[C@H]2O[C@@H](n3cc(C)c(=O)[nH]c3=O)CC2N=[N+]=[N-])CSC1(C)C (stereo partly drawn) [Working Ex. 6] in your answer.
Result :: 83

Query :: Answer with reported Inhibition of HIV protease (inhibitory rate) of Cc1ccccc1CNC(=O)[C@@H]1CSCN1C(=O)[C@@H](O)[C@H](Cc1ccccc1)NC(=O)CC(C)(C)C(=O)OC[C@H]1O[C@@H](n2cc(C)c(=O)[nH]c2=O)CC1N=[N+]=[N-] (stereo partly drawn) [Working Ex. 4]
Result :: 11

Query :: State, in one line, measured Inhibition of HIV protease (inhibitory rate) of Cc1ccccc1CNC(=O)[C@H]1N(C(=O)[C@@H](O)[C@H](Cc2ccccc2)NC(=O)CC(C)(C)C(=O)O)CSC1(C)C [Ref. Ex. 4]
Result :: 100

Query :: Give reported Inhibition of HIV protease (inhibitory rate) value for Cc1ccccc1CNC(=O)[C@@H]1CSCN1C(=O)[C@@H](O)[C@H](Cc1ccccc1)NC(=O)CC(C)(C)C(=O)O [Ref. Ex. 3]
Result :: 87
